- Tested on: Caco-2 cell monolayer
- protocol.description: Permeation to Caco-2 cell monolayer
- Assay type: in vitro ADME, human
- Set-up: unit not given here
- condition.info: 4-hour incubation, initial concentration 500 μM in upper layer
Below, each of the molecules is paired with its reported Conc. at the lover layer value.
Field format: numeric only.

{"compound.string": "CC[C@H](C)[C@H](NC(=O)[C@H](CO)NC(=O)[C@@H](NC(=O)[C@@H]1CCCN1C(=O)[C@H](C)NC(=O)[C@H](CC(N)=O)NC(=O)OCC1c2ccccc2-c2ccccc21)C(C)C)C(=O)N1CCC[C@H]1C(=O)N[C@@H](CCC(N)=O)C(=O)O", "value.reported": 0.57}
{"compound.string": "CC[C@H](C)[C@H](NC(=O)[C@H](CO)NC(=O)[C@@H](NC(=O)[C@@H]1CCCN1C(=O)[C@H](C)NC(=O)[C@H](CC(N)=O)NC(=O)c1cccc2ccccc12)C(C)C)C(=O)N1CCC[C@H]1C(=O)N[C@@H](CCC(N)=O)C(N)=O", "value.reported": 0.34}
{"compound.string": "CCCCCCCCOC(=O)N[C@@H](CC(N)=O)C(=O)N[C@@H](C)C(=O)N1CCC[C@H]1C(=O)N[C@H](C(=O)N[C@@H](CO)C(=O)N[C@H](C(=O)N1CCC[C@H]1C(=O)N[C@@H](CCC(N)=O)C(N)=O)[C@@H](C)CC)C(C)C", "value.reported": 0.65}

Alright, here's another molecule for you.
State the recorded Conc. at the lover layer for this entry: CC[C@H](C)[C@H](NC(=O)[C@H](CO)NC(=O)[C@@H](NC(=O)[C@@H]1CCCN1C(=O)[C@H](C)NC(=O)[C@H](CC(N)=O)NC(=O)c1ccccc1)C(C)C)C(=O)N1CCC[C@H]1C(=O)N[C@@H](CCC(N)=O)C(N)=O
0.33
